Data provenance is patent US20250042994A1.

Biological target: T1, Human CD19-his protein (human, UniProt P15391 20-291)
T1 construct: bought protein; also called human CD19 protein; recombinant human CD19-His; not shown: His tag
T1 sequence (looked up): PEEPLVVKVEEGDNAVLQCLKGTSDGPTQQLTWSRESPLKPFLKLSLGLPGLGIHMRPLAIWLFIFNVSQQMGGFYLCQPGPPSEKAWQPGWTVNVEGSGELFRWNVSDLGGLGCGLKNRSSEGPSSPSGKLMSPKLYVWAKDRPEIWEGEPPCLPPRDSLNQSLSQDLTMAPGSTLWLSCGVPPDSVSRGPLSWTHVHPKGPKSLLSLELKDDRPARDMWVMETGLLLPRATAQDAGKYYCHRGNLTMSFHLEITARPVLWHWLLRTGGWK
Assay: ELISA, antibody at 0.10 nM
Method: Human CD19-his protein (purchased from ACROBiosystems, catalog number: CD9-H52H2) was diluted with PBS to a final concentration of 4 μg/mL, and then added to a 96-well ELISA plate at 100 μl/well. […] The OD450 nm values were read by an ELISA microplate reader (Multimode Plate Reader, EnSight, purchased from Perkin Elmer).
OBSERVATION TYPE: OD450

Below, 2 binders whose answers are already recorded.
F4.22.6 (antibody, human IgG1, V domains shown, human-murine chimeric antibody, human IgG1) VH: QVQLQQSGPELVKPGASVKISCKASGYAFSSFWMNWVKQRPGQGLEWIGRIYPGDGDTNYNGKFKGKATLTADKSSTTAYMHLSSLTSVDSAVYFCTRSVITAVVDWYFDVWGAGTTVTVSS VL: QIVLSQSPAILSASPGEKVTLTCRASSSVNFMHWYQQKPGSSPKPWIYATSNLASGAPARFSGSGSGTSYSLTISRVEAEDAAAYYCQQWSSYPIFTFGSGTKLEIK : 0.62
F3.64.4 (antibody, human IgG1, V domains shown, human-murine chimeric antibody, human IgG1) VH: EVQLQQSGPELVKPGASVKISCKASGYTFTDYHINWVKQSHGKSPEWIGDINPNNGGTTYNQKFKDKATLTVDKSSSTAFMELRSLTSEDSAVYYCARFITTVVAWYFDVWGTGTTVTVSS VL: DIQMTQSPASLSVSVGETVTITCRASENIYSNLAWYQQKQGKSPQLLVYAATNLADGVPSRFSGSGSGTQYSLKINSLQSEDFGNYYCQRFWDTPRTFGGGTKLEIK : 0.55

Please turn your attention to the following entry.
Requested read-out: OD450. Entry: F4.48.12 (antibody, human IgG1, V domains shown, human-murine chimeric antibody, human IgG1) VH: QMQLKESGPGLVAPSQSLSITCTVSGFSLTDYGVSWIRQPPGKGLEWLGVIWGSGSTFYNSALTSRLSISKDNSKSQVFLKMNSLQTADTAMYFCAKHHYYGGSFAMDYWGQGTSVTVSS VL: DIQMTQASSSLSASLGDRVTISCKTSQDISNYLNWYQQKPDGTFKLLIHYTSRLHSGVPSRFSGSGSGSDYSLTISNLEREDIATYFCQQGNSLPYTFGGGTKLEMK 1.56
